Taken from patent US11312715B2.

ASSAY_REMARKS: PK test of in vivo efficacy: plasma and tumor tissue drug concentration on day 20 of the CT26 study
Parameters: species or system BALB/C mice
CONDITION_LABEL: BALB/C, mouse, plasma, po, 100 mg/kg, Group 6: 100 mg/kg once a day PO + CS1003 1 mg/kg; day 20; plasma; read-out: T½ (converted)
Counter-ions that a name gives are not always drawn.
MEASUREMENT_TYPE: half-life (min)

>>> data_value("Nc1nc(-c2ccc(F)cc2)c(-c2ccc3ncnn3c2)c2nccnc12 [Embodiment 6 hydrochloride]")
39.3

* * *

ASSAY_REMARKS: PK test of in vivo efficacy: plasma and tumor tissue drug concentration on day 20 of the CT26 study
Parameters: species or system BALB/C mice
CONDITION_LABEL: BALB/C, mouse, oral, 100 mg/kg; Group 3, 100 mpk alone; time point 1 h; tumor tissue
Counter-ions that a name gives are not always drawn.
MEASUREMENT_TYPE: concentration at 1 h (µM)

>>> data_value("Nc1nc(-c2ccc(F)cc2)c(-c2ccc3ncnn3c2)c2nccnc12 [Embodiment 6 hydrochloride]")
17.5

* * *

Let's look at some molecules and their measured bioavailability.
ASSAY_REMARKS: Pharmacokinetic evaluation after single intravenous injection and single oral administration in mice
Format: in vivo
CONDITION_LABEL: mouse; female Balb/C mice, plasma, single IV / single PO study; read-out: Bioavailability F
MEASUREMENT_TYPE: bioavailability

>>> data_value("Cc1cc(-c2c(-c3ccc(F)cc3)nc(N)c3nccnc23)cc(C)n1")
"57.6%"
>>> data_value("Cc1cc(-c2c(-c3ccc(F)cc3)nc(N)c3nccnc23)cc(Cl)n1")
"76.2%"
>>> data_value("Nc1nc(-c2ccc(F)cc2)c(-c2cc(Cl)nc(C(F)(F)F)c2)c2nccnc12")
"69%"
>>> data_value("Nc1nc(-c2ccc(F)cc2)c(-c2ccc3ncnn3c2)c2ncccc12")
"95.4%"

* * *

ASSAY_REMARKS: PK test of in vivo efficacy: plasma and tumor tissue drug concentration on day 20 of the CT26 study
Design: species or system BALB/C mice
CONDITION_LABEL: BALB/C, mouse, plasma, po, 50 mg/kg, Group 5: 50 mg/kg once a day PO + CS1003 1 mg/kg; day 20; plasma
Where a name gives a salt, the structure may show the parent alone.
MEASUREMENT_TYPE: AUC(0-t) (µM·h)

>>> data_value("Nc1nc(-c2ccc(F)cc2)c(-c2ccc3ncnn3c2)c2nccnc12 [Embodiment 6 hydrochloride]")
70.6

* * *

ASSAY_REMARKS: Pharmacokinetic evaluation after single intravenous injection and single oral administration in mice
Format: in vivo
CONDITION_LABEL: mouse; female Balb/C mice, plasma, single IV / single PO study; read-out: Half-life T1/2 (converted)
Collected half-life values appear next to each entry.
MEASUREMENT_TYPE: half-life (min)

>>> data_value("Cc1cc(-c2c(-c3ccc(F)cc3)nc(N)c3nccnc23)cc(Cl)n1")
46.8
>>> data_value("Nc1nc(-c2ccc(F)cc2)c(-c2ccc3ncnn3c2)c2nccnc12")
49.2
>>> data_value("Cc1cc(-c2c(-c3ccc(F)cc3)nc(N)c3nccnc23)cc(C)n1")
36
>>> data_value("Nc1nc(-c2ccc(F)cc2)c(-c2cc(Cl)nc(C(F)(F)F)c2)c2nccnc12")
83.4
>>> data_value("Nc1nc(-c2ccc(F)cc2)c(-c2ccc3ncnn3c2)c2ncccc12")
197
